- Tested on: S. typhimurium/E. coli reverse mutation, colony counts
- Assay notes: Bacterial reverse mutation test (aka Ames test) summary data;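 further: His-minus Salmonella and trp-minus E. coli WP2 uvrA pKM101 with or without liver S9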
Records with an inconclusive call do not appear. Activity calls are given as the source filed them. How the calls were made is not given here.
Select the matching outcome among active, inactive

So what was the verdict on `CN(C)C(=O)Nc1cccc(C(F)(F)F)c1` in this test?
inactive

So what was the verdict on `Oc1c(Cl)ccc(Cl)c1Cl` in this test?
inactive

So what was the verdict on `Cc1nnc(NS(=O)(=O)c2ccc(N)cc2)s1` in this test?
inactive

So what was the verdict on `O=C1c2ccccc2-c2ccc3c4c(ccc1c24)-c1ccccc1C3=O` in this test?
inactive

So what was the verdict on `Nc1c(Br)cc(Br)c2c1C(=O)c1ccccc1C2=O` in this test?
active

So what was the verdict on C=C(C)C1CC=C(C)C(O)C1 (configuration not stated) in this test?
inactive

So what was the verdict on `CCCN(CCC)c1c([N+](=O)[O-])cc(C(F)(F)F)cc1[N+](=O)[O-]` in this test?
active

---

- Test system: S. typhimurium/E. coli reverse mutation, colony counts
- Assay notes: Bacterial reverse mutation test (aka Ames test) summary data;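 further: His-minus Salmonella and trp-minus E. coli WP2 uvrA pKM101 with or without liver S9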
Records with an inconclusive call do not appear. The source made the active and inactive calls. No rule for the calls is given here.
Select the matching outcome among True (active), False (inactive)

Please review the following examples before continuing.
>  <Compound>
COc1ccc([N+](=O)[O-])cc1N

>  <Label value>
True

$$$$
>  <Compound>
Cc1cc(N)ccc1-c1ccc(N)cc1C

>  <Label value>
True

$$$$
>  <Compound>
[CH3][Hg+]

>  <Label value>
False

$$$$
>  <Compound>
CC(=O)O

>  <Label value>
False

$$$$
>  <Compound>
CCCCCCCCCCCOC(=O)c1ccccc1C(=O)OCCCCCCCCCCC

>  <Label value>
False

$$$$

Now turn to the next compound.
So what was the verdict on `[Li+]` in this test?
False

---

- System: S. typhimurium/E. coli reverse mutation, colony counts
- Assay notes: Bacterial reverse mutation test (aka Ames test) summary data;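 further: His-minus Salmonella and trp-minus E. coli WP2 uvrA pKM101 with or without liver S9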
Inconclusive results are not listed. The source made the active and inactive calls. No rule for the calls is given here.
Select the matching outcome among t for active, f for inactive

So what was the verdict on `C=CC(=O)OCC(CO)(COC(=O)C=C)COC(=O)C=C` in this test?
f

So what was the verdict on `CCCCCCCCCCCCCOC(=O)c1ccccc1C(=O)OCCCCCCCCCCCCC` in this test?
f

So what was the verdict on `O=Nc1ccc(O)cc1` in this test?
t

So what was the verdict on `NCCCOCCOCCOCCCN` in this test?
f

So what was the verdict on `CCCC(=O)OCC` in this test?
f

So what was the verdict on `O=[N+]([O-])c1cccc2ccccc12` in this test?
t

So what was the verdict on `Cc1cccc(OP(=O)(Oc2cccc(C)c2)Oc2cccc(C)c2)c1` in this test?
f

So what was the verdict on CC=C1CC2C=CC1C2 (stereo unspecified) in this test?
f

So what was the verdict on `CCCCNC(=O)NS(=O)(=O)c1ccc(C)cc1` in this test?
f

So what was the verdict on `c1ccc(Nc2ccc(Nc3ccccc3)cc2)cc1` in this test?
t

---

- Tested on: S. typhimurium/E. coli reverse mutation, colony counts
- Assay notes: Bacterial reverse mutation test (aka Ames test) summary data;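 further: His-minus Salmonella and trp-minus E. coli WP2 uvrA pKM101 with or without liver S9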
- From the text: The Ames test uses bacteria cultures to determine whether a substance causes mutations. Because there is a significant overlap between substances that are mutagens and those that are carcinogens, a quick and inexpensive mutagenicity test is useful as an initial screening for possible carcinogens. The Ames test relies on specific strains of S. typhimurium, namely: TA97, TA98, TA100, TA102, TA104, TA1535, TA1537, and TA1538. […]
Records with an inconclusive call do not appear. Active and inactive are the calls of the source. The rule behind the calls is not given here.
Readout: outcome

>  <Structure string>
c1ccc(CSCc2ccccc2)cc1

>  <Readout>
outcome

>  <Result>
inactive; negative

$$$$
>  <Structure string>
CCOP(=S)(OCC)SCSC(C)(C)C

>  <Readout>
outcome

>  <Result>
inactive; negative

$$$$
>  <Structure string>
CCOc1ccc(NC(N)=O)cc1

>  <Readout>
outcome

>  <Result>
inactive; negative

$$$$
>  <Structure string>
O=C(O)c1cccc(Cl)c1

>  <Readout>
outcome

>  <Result>
inactive; negative

$$$$
>  <Structure string>
Nc1ccc(-c2ccc(N)cc2S(=O)(=O)O)c(S(=O)(=O)O)c1

>  <Readout>
outcome

>  <Result>
inactive; negative

$$$$

Provide the reported outcome of each entry below, same order.
1. NC(=O)c1ccccc1C(N)=O
2. Nc1cc([N+](=O)[O-])ccc1O
3. CCCCOC(=O)c1ccc(N)cc1
4. OCCCCO

1: inactive; negative; 2: active; positive; 3: inactive; negative; 4: inactive; negative

Provide the reported outcome of each entry below, same order.
1. O=[N+]([O-])c1ccc2c3c(cccc13)CC2
2. N#CCc1ccccc1
3. C1CN(CCOCCN2CCOCC2)CCO1
4. COC[CH2][Hg+]

1: active; positive; 2: inactive; negative; 3: inactive; negative; 4: inactive; negative

Provide the reported outcome of each entry below, same order.
1. COc1ccc(C(=O)c2ccccc2O)c(O)c1
2. Nc1ccc(N)c2ccccc12
3. CC(=O)NBr

1. active; positive
2. active; positive
3. inactive; negative
